assay: Solubility of the compound in water at pH 4.3; format: physicochemical
reported_property: solubility
State the value, then name its unit.

Query: Look up and state reported solubility for O=C(O)Cn1c2c(c3ccccc31)CN(C(=O)c1ccccc1)CC2
Reply: 0.064 mg/mL

Query: Specify measured solubility for O=C(O)Cn1c2c(c3cc(F)ccc31)CN(C(=O)c1cccc3ccccc13)CC2 [SETIPIPRANT] .
Reply: 0.05 mg/mL

Query: Given the molecule CCc1ccc(-c2ccc(C(=O)N3CCc4c(c5ccccc5n4CC(=O)O)C3)cc2)cc1 , write its reported solubility.
Reply: 0.002 mg/mL

* * *

assay: Intrinsic clearance in human liver microsomes measured per mg of protein at 1 uM by LC/MS-MS analysis; assay type: ADME, Microsome; settings: read-out: CLH
reported_property: microsomal CLint at 1 µM

Query: Supply measured microsomal CLint at 1 µM of CCc1ccc(-c2ccc(C(=O)N3CCc4c(c5ccccc5n4CC(=O)O)C3)cc2)cc1 in your reply.
Reply: 85 µL/min/mg

Query: Look up and report measured microsomal CLint at 1 µM for this entry: O=C(O)Cn1c2c(c3cc(F)ccc31)CN(C(=O)c1cccs1)CC2
Reply: < 4 µL/min/mg

Query: Consider the compound O=C(O)Cn1c2c(c3ccccc31)CN(C(=O)c1cccc3ccccc13)CC2 and give its recorded microsomal CLint at 1 µM.
Reply: < 4 µL/min/mg

Query: Query microsomal CLint at 1 µM for O=C(O)Cn1c2c(c3cc(F)ccc31)CN(C(=O)Cc1c[nH]c3ccccc13)CC2
Reply: < 4 µL/min/mg

Query: Report microsomal CLint at 1 µM, nothing else, for this compound: O=C(O)Cn1c2c(c3ccccc31)CN(C(=O)c1ccccc1)CC2
Reply: 5 µL/min/mg

* * *

assay: Volume of distribution at steady state in Wistar rat; format: ADME, organism-based; settings: in vivo, read-out: Vdss
reported_property: Vd (L/kg)
Answer in L/kg, number only, no unit symbol.

Query: Report measured Vd; entry is CC(=O)Oc1ccccc1C(=O)O
Reply: 0.4

Query: Write down Vd measured for item CC(=O)CC(c1ccccc1)c1c(O)c2ccccc2oc1=O (configuration not stated)
Reply: 0.4

* * *

Molecular target: Prostaglandin D2 receptor 2 (Homo sapiens)
Sequence (Q9Y5Y4 whole entry): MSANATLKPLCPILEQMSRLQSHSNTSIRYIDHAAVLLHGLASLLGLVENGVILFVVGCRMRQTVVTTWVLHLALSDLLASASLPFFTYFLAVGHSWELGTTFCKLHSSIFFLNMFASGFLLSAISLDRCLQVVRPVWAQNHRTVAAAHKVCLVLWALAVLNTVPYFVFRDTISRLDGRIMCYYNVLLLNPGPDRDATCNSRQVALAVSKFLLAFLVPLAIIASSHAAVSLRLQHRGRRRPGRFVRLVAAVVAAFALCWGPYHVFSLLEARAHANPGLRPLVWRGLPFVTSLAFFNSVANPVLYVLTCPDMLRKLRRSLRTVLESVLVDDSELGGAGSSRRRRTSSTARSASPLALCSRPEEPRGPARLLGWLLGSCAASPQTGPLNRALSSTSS
Assay: Displacement of [3H]PGD2 from recombinant human CRTH2 receptor expressed in HEK293 cell membranes after 90 mins by scintillation counting analysis
pIC50: −log10 of the molar value.
Decision: pIC50 >= 8 yields t, all other cases yield f.

Query: Say whether O=C(O)Cn1c2c(c3cc(F)ccc31)CN(C(=O)Cc1cccc3ccccc13)CC2 shows pIC50 of 8 or more.
Reply: t

Query: Has O=C(O)Cn1c2c(c3cc(F)ccc31)CN(C(=O)c1cccs1)CC2 a recorded pIC50 greater than or equal to 8?
Reply: t

Query: Dear colleague, could you confirm whether O=C(O)Cn1c2c(c3cccc(Cl)c31)CN(C(=O)c1ccccc1)CC2 has pIC50 at or above 8?
Reply: f

Query: Hello, I need to know if Cc1ccc2c(c1)c1c(n2CC(=O)O)CCN(C(=O)c2cccc3ccccc23)C1 has measured pIC50 not below 8. Thanks!
Reply: t

Query: Answer whether pIC50 of O=C(O)Cn1c2c(c3cc(F)cc(Cl)c31)CN(C(=O)c1cccc3ccccc13)CC2 is greater than or equal to 8.
Reply: f

Query: Has CC(C)c1ccc2c(c1)c1c(n2CC(=O)O)CCN(C(=O)c2ccccc2)C1 a recorded pIC50 greater than or equal to 8?
Reply: f

Query: // inclusive: pIC50 at least 8? input: CCc1ccc(-c2ccc(C(=O)N3CCc4c(c5ccccc5n4CC(=O)O)C3)cc2)cc1
Reply: t

* * *

test: Half life in Wistar rat at 0.2 mg/kg, iv and 2 mg/kg, po; format: ADME, organism-based; conditions: in vivo
reported_property: half-life (h)
State just the number; it will be interpreted in h.

Query: Report half-life, nothing else, for this compound: O=C(O)Cn1c2c(c3cc(F)ccc31)CN(C(=O)Cc1c[nH]c3ccccc13)CC2
Reply: 1.2

* * *

assay: Oral bioavailability in Wistar rat at 10 mg/kg; format: ADME, organism-based; settings: in vivo
reported_property: bioavailability (%)
Numbers only; they are read as %.

Query: Report bioavailability, nothing else, for this compound: CCc1ccc(-c2ccc(C(=O)N3CCc4c(c5ccccc5n4CC(=O)O)C3)cc2)cc1
Reply: 4

Query: Note down bioavailability recorded for O=C(O)Cn1c2c(c3cc(F)ccc31)CN(C(=O)c1cccc(Cl)c1)CC2
Reply: 23

Query: Read off the recorded bioavailability for O=C(O)Cn1c2c(c3ccccc31)CN(C(=O)c1cccc3ccccc13)CC2
Reply: 36

Query: Give reported bioavailability value for O=C(O)Cn1c2c(c3cc(F)ccc31)CN(C(=O)c1cccc3ccccc13)CC2
Reply: 44

Query: # return recorded bioavailability for input O=C(O)Cn1c2c(c3cc(F)ccc31)CN(C(=O)c1cccs1)CC2
Reply: 5

* * *

Consider the following molecules; for each one, report its AUClast.
tested on: Canis familiaris; test: AUC (0 to last) in beagle dog at 10 mg/kg, po; type: ADME, organism-based, Canis lupus familiaris, Plasma; set-up: time 0 - last, dose 10 mg/kg, route oral; settings: in vivo
Write the figure, then the unit, nothing else.

Query: Look up and report measured AUClast for this entry: O=C(O)Cn1c2c(c3cc(F)ccc31)CN(C(=O)c1cccc(Cl)c1)CC2
Reply: 9620 ng·h/mL

Query: Complete the entry with AUClast for O=C(O)Cn1c2c(c3cc(F)ccc31)CN(C(=O)c1cccc3ccccc13)CC2
Reply: 91100 ng·h/mL

* * *

experiment: Plasma clearance in Wistar rat at 1 mg/kg, iv and 10 mg/kg, po; format: ADME, organism-based
Assignment: determine reported clearance for the given compounds.
Lab book: enter the figure in mL/min/kg, no units written.

Query: Could you please provide reported clearance for O=C(O)Cn1c2c(c3cc(F)ccc31)CN(C(=O)c1cccs1)CC2 ? Thanks!
Reply: 36

Query: Specify measured clearance for O=C(O)Cn1c2c(c3ccccc31)CN(C(=O)c1cccc3ccccc13)CC2 .
Reply: 1.1

Query: Find the measured clearance of O=C(O)Cn1c2c(c3cc(F)ccc31)CN(C(=O)c1cccc(Cl)c1)CC2 and report it.
Reply: 5.9

* * *

target: Prostaglandin D2 receptor 2 (Homo sapiens); assay: Antagonist activity at human CRTH2 receptor expressed in HEK293 cells assessed as inhibition of PGD2-induced calcium flux after 5 mins by FLIPR assay; assay type: functional, cell-based
reported_property: pIC50
Scale for pIC50: -log10 of concentration given in mol/L; no unit attached.

Query: Name the recorded pIC50 of O=C(O)Cn1c2c(c3ccccc31)CN(C(=O)c1cccc(Cl)c1)CC2 , assay system Prostaglandin D2 receptor 2 (Homo sapiens).
Reply: 7.15

Query: Please look at O=C(O)Cn1c2c(c3ccccc31)CN(C(=O)C1CCCCC1)CC2 and tell me its recorded pIC50 on Prostaglandin D2 receptor 2 (Homo sapiens).
Reply: 6.70

Query: # lookup: Prostaglandin D2 receptor 2 (Homo sapiens) pIC50, key = O=C(O)Cn1c2c(c3cc(Cl)ccc31)CN(C(=O)c1cccc3ccccc13)CC2
Reply: 7.52

Query: Using Prostaglandin D2 receptor 2 (Homo sapiens) as the test system, report measured pIC50 of CCc1ccc(-c2ccc(C(=O)N3CCc4c(c5cccc(Cl)c5n4CC(=O)O)C3)cc2)cc1 .
Reply: 5.59

Query: Look up Prostaglandin D2 receptor 2 (Homo sapiens) data: pIC50 of Cc1ccc2c(c1)c1c(n2CC(=O)O)CCN(C(=O)c2cccc3ccccc23)C1 , then report it.
Reply: 7.22

Query: Enter recorded pIC50 with Prostaglandin D2 receptor 2 (Homo sapiens) for O=C(O)Cn1c2c(c3cc(F)ccc31)CN(C(=O)Cc1c[nH]c3ccccc13)CC2 here.
Reply: 7.82

Query: Recall the reported pIC50 of O=C(O)Cn1c2c(c3cc(F)ccc31)CN(C(=O)c1cccc3ccccc13)CC2 on Prostaglandin D2 receptor 2 (Homo sapiens) and write it down.
Reply: 7.52

Query: Name the recorded pIC50 of O=C(O)Cn1c2c(c3cc(C(F)(F)F)ccc31)CN(C(=O)c1cccc3ccccc13)CC2 , assay system Prostaglandin D2 receptor 2 (Homo sapiens).
Reply: 7.70

Query: Find the measured pIC50 of O=C(O)Cn1c2c(c3cc(F)ccc31)CN(C(=O)CCc1cccc3ccccc13)CC2 with Prostaglandin D2 receptor 2 (Homo sapiens) as test system.
Reply: 7.19
